- Recorded Conditions: buffer; pH 7.4; 200.0 µM
Observation Type: solubility kinetic

What solubility kinetic value was documented for this compound, `Cc1ccc(/C=C/C(=O)NN2CCN(C)CC2)cc1` ?
> 38.9 µg/mL

Quick one: solubility kinetic of `CCOC(=O)c1c2c3c(cccc3[nH]c1=O)C(=O)c1ccccc1-2` ?
< 0.7 µg/mL

Sample Cc1ccnc(SC2CC(=O)N(c3ccc(Cl)cc3)C2=O)n1 (stereo not drawn) — what was its solubility kinetic?
> 50.1 µg/mL

----------
- Recorded Conditions: buffer; pH 7.4; 200.0 µM
Observation Type: log10(solubility kinetic) (log10 of the value in µg/mL)
Give log10 of solubility kinetic, with solubility kinetic taken in µg/mL.

Given `COc1ccc(C)cc1-n1c(C)cc(C=O)c1C` , state its recorded log10(solubility kinetic).
1.56

Recorded log10(solubility kinetic) for Cc1cccc(OC(C)C(=O)NC2CCS(=O)(=O)C2)c1C (stereo unspecified) , please?
1.67

Record request: log10(solubility kinetic) value, item `O=C(/C=C/c1cccc(C(F)(F)F)c1)N1CCN(c2ccccn2)CC1`
0.60

Consider the molecule CC1NC(=S)N(Cc2ccccc2)C1=O (stereo unspecified) and give its measured log10(solubility kinetic).
1.50

Field request: log10(solubility kinetic) | item: `FC(F)(F)c1cc(N2CCNCC2)c2ccccc2n1`
1.62

Any idea what its log10(solubility kinetic) is? The molecule is `COc1ccc(CC(=O)Nc2nc(C(C)(C)C)cs2)cc1`
0.32

Please look up its log10(solubility kinetic): `Fc1ccc(CN2CCN(c3ncccn3)CC2)c(F)c1`
1.51

// lookup log10(solubility kinetic) for Cc1ccc(C)c(C(C)NC(=O)c2ccc(Br)o2)c1 (stereo unspecified)
1.62

Which value of log10(solubility kinetic) has been reported for O=C(NC1CCCC1)C1CCCN1C(=O)Oc1ccccc1 (stereo unspecified) in the records?
1.62

Could you share which log10(solubility kinetic) value was measured for `Oc1ccc2ccccc2c1C=NCc1ccccc1` ?
1.03

For the molecule COc1ccccc1NC(=O)COC(=O)C1CC(=O)N(c2ccc3c(c2)OCCO3)C1 (stereo unspecified) , what log10(solubility kinetic) is on record?
1.58

# input molecule: `CCC(C)(C)c1ccc(OCC(=O)Nc2ccncc2)cc1` ; wanted: its log10(solubility kinetic)
0.41
